target.system: RAC-beta serine/threonine-protein kinase (Homo sapiens)
test.conditions: at 1 µM
Description: GSK_PKIS: AKT2 mean inhibition at 1 uM [Nanosyn]
attribute.measured: inhibition (%)
Please give a number only; it is taken to be in %.

Completed entries (count: 2):
{"columns": ["molecular.string", "result.number"],
 "data": [
  ["COC(=O)Nc1nc2cc(Oc3ccc(NC(=O)Nc4cccc(Br)c4)cc3)ccc2[nH]1", 1.01],
  ["CCS(=O)(=O)c1ccc(OC)c(Nc2nccc(N(C)c3ccc4c(C)n[nH]c4c3)n2)c1", 2.53]
]}

Next molecule, please.
### Prompt Value lookup for inhibition; key = "CCOc1nccc2c1nc(-c1nonc1N)n2CC"
### Response 1.44

---

target.system: Cytoplasmic tyrosine-protein kinase BMX (Homo sapiens) (UniProt P51813)
Sequence (P51813 whole entry): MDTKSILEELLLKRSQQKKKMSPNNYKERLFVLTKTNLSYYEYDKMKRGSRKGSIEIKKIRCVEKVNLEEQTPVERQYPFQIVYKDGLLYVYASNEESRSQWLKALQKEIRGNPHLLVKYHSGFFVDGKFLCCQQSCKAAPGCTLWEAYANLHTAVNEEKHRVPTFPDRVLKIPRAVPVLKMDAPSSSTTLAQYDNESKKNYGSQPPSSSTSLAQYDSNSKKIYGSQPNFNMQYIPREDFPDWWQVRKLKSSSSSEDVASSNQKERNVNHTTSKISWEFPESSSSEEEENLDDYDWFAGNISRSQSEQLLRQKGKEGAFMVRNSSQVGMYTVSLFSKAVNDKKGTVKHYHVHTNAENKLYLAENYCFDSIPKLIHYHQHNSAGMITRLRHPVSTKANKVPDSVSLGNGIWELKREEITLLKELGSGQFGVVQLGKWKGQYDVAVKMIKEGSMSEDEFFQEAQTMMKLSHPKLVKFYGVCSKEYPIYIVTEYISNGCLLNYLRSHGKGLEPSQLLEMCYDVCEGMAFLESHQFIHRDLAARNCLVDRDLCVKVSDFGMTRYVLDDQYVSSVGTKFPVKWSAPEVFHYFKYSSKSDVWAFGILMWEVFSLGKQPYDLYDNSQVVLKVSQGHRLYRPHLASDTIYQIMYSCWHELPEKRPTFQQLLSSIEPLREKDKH
test.conditions: at 0.1 µM
Description: GSK_PKIS: BMX mean inhibition at 0.1 uM [Nanosyn]
attribute.measured: inhibition (%)
Unit % implied. Number only.

{"columns": ["molecular.string", "reading.unit", "inhibition"],
 "data": [
  ["Nc1nccc(-c2c(-c3ccc(F)cc3)nn3cc(C(F)(F)F)ccc23)n1", "%", -1.09]
]}

### Prompt Fill in the blank: the reported inhibition of "CN(C)CCCn1c(-c2nonc2N)nc2cnccc21" is ____.
### Response 3.45

### Prompt Consider next the compound "COc1cccc(-n2nc(C)c3c(N/N=C(\C)c4ccncc4)ncnc32)c1" in the same way.
### Response 1.51

### Prompt Now consider "N#Cc1c(NC(=O)c2ccccc2F)sc2c1CCCC2" .
### Response -1.17

### Prompt Continue with "CCOc1nccc2c1nc(-c1nonc1N)n2CC"
### Response 1.6

### Prompt Query "CN(C)c1cc2c(Nc3ccc4c(cnn4Cc4ccccc4)c3)ncnc2cn1" next
### Response 3.53

---

target.system: Serine/threonine-protein kinase pim-2 (Homo sapiens);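 note: each value is a mean of the inhibition measurements against the kinase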
test.conditions: at 1 µM
// reported inhibition per item
Reply numerically in %, unit not repeated.

{"columns": ["molecular.string", "reading.unit", "result.number"],
 "data": [
  ["Cc1ccc(O)cc1Nc1ccnc2ccc(S(C)(=O)=O)cc12", "%", 0.8],
  ["Cc1ccc(NC(=O)CC2CC2)cc1-c1ccc(C(=O)NCC2CC2)cc1", "%", 0.37]
]}

### Prompt For "FC(F)(F)c1ccc(-c2nn3ncccc3c2-c2ccnc(Nc3ccc4c(c3)OCCO4)n2)cc1" , what is its reported inhibition?
### Response 5.12

### Prompt Consider next the compound "CS(=O)(=O)CCNCc1nc(-c2ccc3ncnc(Nc4ccc(OCc5cccc(C(F)(F)F)c5)cc4)c3c2)cs1" in the same way.
### Response -0.33

### Prompt Similarly, "Nc1nccc(C#Cc2cncnc2Nc2ccc(OCc3cccc(F)c3)c(Cl)c2)n1" ?
### Response 1.29

### Prompt Another compound to check: "CC(C)c1ccc2c(c1)NC(=O)/C2=N/Nc1ccc(S(N)(=O)=O)cc1"
### Response 1.32

### Prompt Can you handle "Oc1cccc(-c2nc(-c3ccccc3)[nH]c2-c2ccncc2)c1" next?
### Response 0.33

### Prompt Item: "Nc1ccc(C#Cc2cncnc2Nc2ccc(OCc3cccc(F)c3)c(Cl)c2)cc1"
### Response 0.51

---

target.system: Dual specificity protein kinase CLK2 (Homo sapiens) (UniProt P49760)
Sequence (P49760 whole entry, looked up): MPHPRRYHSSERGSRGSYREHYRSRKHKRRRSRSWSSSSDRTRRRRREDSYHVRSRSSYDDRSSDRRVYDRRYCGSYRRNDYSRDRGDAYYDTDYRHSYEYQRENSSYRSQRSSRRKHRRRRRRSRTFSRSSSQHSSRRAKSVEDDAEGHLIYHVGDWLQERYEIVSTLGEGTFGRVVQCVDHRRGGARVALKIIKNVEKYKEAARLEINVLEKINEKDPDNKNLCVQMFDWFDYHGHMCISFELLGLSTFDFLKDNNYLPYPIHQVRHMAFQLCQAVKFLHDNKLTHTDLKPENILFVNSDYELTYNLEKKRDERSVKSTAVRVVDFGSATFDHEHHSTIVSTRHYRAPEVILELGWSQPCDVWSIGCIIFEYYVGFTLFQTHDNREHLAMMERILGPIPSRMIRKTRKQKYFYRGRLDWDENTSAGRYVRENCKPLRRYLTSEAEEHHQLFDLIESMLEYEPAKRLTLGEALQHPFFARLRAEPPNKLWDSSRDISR
test.conditions: at 1 µM
attribute.measured: inhibition (%)
The response must be a number in % with no trailing unit.

// solved cases for inhibition follow
{"columns": ["molecular.string", "inhibition (%)"],
 "data": [
  ["COc1ccc2ncnc(Nc3ccc(OCc4ccccc4)cc3)c2c1", 0.25],
  ["O=C(Nc1ccc(Oc2ccc3[nH]c(NC(=O)c4ccco4)nc3c2)cc1)Nc1cc(C(F)(F)F)ccc1F", 0.71],
  ["COc1cc2ncn(-c3cc(OCc4ccccc4S(C)(=O)=O)c(C#N)s3)c2cc1OC", 10.8]
]}

### Prompt Param readout= inhibition; system= Dual specificity protein kinase CLK2 (Homo sapiens) (UniProt P49760); entry= "CCn1c(-c2nonc2N)nc2c(C#CC(C)(C)O)nc(OCCNC)cc21" ; returns value.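 Note: reported values are mean percent inhibition of CLK2.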
### Response 3.81

### Prompt Try this compound too: "Cc1ccc2c(-c3ccnc(Nc4ccc5c(c4)OCCO5)n3)c(-c3ccc(C(F)(F)F)cc3)nn2n1"
### Response -0.4
